Kindly state inhibition at 30 µM for each of the entries shown.
biological target: SP receptor (Rattus norvegicus); construct: from tissue; host or cells: rat submaxillary gland (crude tissue suspension); assay: 3H-SP binding test, rat submaxillary gland tissue; settings: read-out: 3H-SP Binding % Inhibition
Sequence (P14600 whole entry): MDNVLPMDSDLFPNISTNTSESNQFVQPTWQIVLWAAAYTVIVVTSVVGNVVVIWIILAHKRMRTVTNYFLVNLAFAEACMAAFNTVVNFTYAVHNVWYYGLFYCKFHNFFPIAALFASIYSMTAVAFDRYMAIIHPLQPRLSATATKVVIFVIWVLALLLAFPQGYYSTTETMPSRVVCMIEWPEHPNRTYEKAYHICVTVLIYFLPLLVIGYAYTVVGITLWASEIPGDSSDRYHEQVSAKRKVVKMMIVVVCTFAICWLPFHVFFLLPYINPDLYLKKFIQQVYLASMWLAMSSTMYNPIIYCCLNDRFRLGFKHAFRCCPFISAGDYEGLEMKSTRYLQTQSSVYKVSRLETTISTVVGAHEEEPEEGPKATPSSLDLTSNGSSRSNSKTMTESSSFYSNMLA
Non-standard residues stand in square brackets, D forms with d. Residues, ends and D or L forms follow the SMILES beside them. hPhe = N[C@@H](CCc1ccccc1)C(=O)O; dPhg = N[C@@H](C(=O)O)c1ccccc1; Nle = CCCC[C@H](N)C(=O)O
Numbers only; they are read as %.

Returns the measured inhibition at 30 µM for the input compound. Input: CCCC[C@H](NC(=O)[C@H](CC(C)C)NC(=O)[C@@H](Cc1ccccc1)NC(=O)[C@H](Cc1ccccc1)NC(=O)[C@@H](Cc1ccccc1)NC(=O)[C@@H]1CCCN1)C(N)=O [Example 31, HPro-DPhe-Phe-DPhe-Leu-NleNH2] (H-P[dF]F[dF]L[Nle]-NH2)
47

Returns the measured inhibition at 30 µM for the input compound. Input: CSCC[C@H](NC(=O)[C@H](CC(C)C)NC(=O)[C@@H](Cc1c[nH]c2ccccc12)NC(=O)[C@H](Cc1ccccc1)NC(=O)[C@@H](Cc1ccccc1)NC(=O)[C@@H]1CCCN1)C(N)=O [Example 12, HPro-DPhe-Phe-DTrp-Leu-MetNH2] (H-P[dF]F[dW]LM-NH2)
69

Returns the measured inhibition at 30 µM for the input compound. Input: CSCC[C@H](NC(=O)[C@H](CC(C)C)NC(=O)[C@@H](Cc1ccccc1)NC(=O)[C@H](Cc1ccccc1)NC(=O)[C@H](NC(=O)[C@@H]1CCCN1)c1ccccc1)C(N)=O [Example 28, HPro-DPhg-Phe-DPhe-Leu-MetNH2] (H-P[dPhg]F[dF]LM-NH2)
33

Returns the measured inhibition at 30 µM for the input compound. Input: CSCC[C@H](NC(=O)[C@H](CC(C)C)NC(=O)[C@@H](Cc1ccccc1)NC(=O)[C@H](CCc1ccccc1)NC(=O)[C@@H](Cc1ccccc1)NC(=O)[C@@H]1CCCN1)C(N)=O [Example 29, HPro-DPhe-Hfe-DPhe-Leu-MetNH2] (H-P[dF][hPhe][dF]LM-NH2)
64

Returns the measured inhibition at 30 µM for the input compound. Input: CSCC[C@H](NC(=O)[C@H](CC(C)C)NC(=O)[C@@H](Cc1ccccc1)NC(=O)[C@H](Cc1ccccc1)NC(=O)[C@@H](Cc1ccccc1)NC(=O)[C@@H]1CCCN1)C(N)=O [Example 23, HPro-DPhe-Phe-DPhe-Leu-MetNH2] (H-P[dF]F[dF]LM-NH2)
53
